Kindly state z-score for each of the entries shown.
assay: A549 lung cancer cell viability effects, profiling panel, resazurin fluorescence, 24 h, PK04 Diversity Set (AID 1171); details: higher = more signal, called active from +8 up or from −8 down; further: test concentration not given here
Respond using a number only.

Q) Please indicate z-score recorded for `C[N+](C)(C)CCCC[C@@H]1NC(=O)[C@H]2C[C@@H](C(=O)NCCCCCN)[C@@H](c3cccc(OCCO)c3)N2C1=O`
A) -0.156

Q) Identify measured z-score associated with `O=C(NCC(F)(F)F)[C@@H]1c2ccccc2C(=O)N(C2Cc3ccccc3C2)[C@H]1c1ccc(CO)cc1`
A) 1.05

Q) Note down z-score recorded for `C=CCN1C(=O)[C@@]2(O[C@@H](CCn3cc(CCO)nn3)[C@H]([Si](C)(C)c3ccc(OC)cc3)[C@H]2C)c2cc(NC(=O)c3ccc(OC)cc3)ccc21`
A) -1.27

Q) Specify z-score for `Cc1ccc(N2C(=O)c3ccccc3[C@](C)(C(=O)NC3CC3)[C@@H]2c2ccc(CO)cc2)nc1` and stop.
A) 1.1

Q) // Input: COC(=O)C1=CC(c2ccc(CO)cc2)=CC(c2cccs2)N(C)C=C1C(=O)OC (centres undefined) . Output its z-score only.
A) 0.446

Q) Report z-score for `CO[C@H]1O[C@H](CO)[C@@H](OC(=O)Nc2ccccc2)[C@H](OC(=O)Nc2ccccc2-c2ccccc2)[C@@H]1OC(=O)Nc1ccccc1-c1ccccc1`
A) -2.22

Q) Answer with the recorded z-score for the compound listed here: C[C@@H](OCc1ccccc1)C1NC(=O)[C@@]23C(=O)N[C@@H](Cc4ccccc4)C2[C@H](C)[C@@]2(C)O[C@H]2C3/C=C/C/C=C\CNC(=O)[C@@H]2CCCN2C1=O (some centres undefined)
A) 1.46

Q) Respond only with z-score recorded for `CCCCCCC#C[Si](O[C@H](c1ccccc1)c1cn(Cc2ccccc2)nn1)(C(C)C)C(C)C`
A) 4.71

Q) Supply reported z-score belonging to this compound: `CC(C)N1C(=O)c2ccccc2[C@@H](C(=O)NCc2ccccc2)[C@@H]1c1ccc(CO)cc1`
A) 1.05

Q) Check the records and state z-score for CC1CC/C=C\[C@H]2OC34C=CCN(C(C)C)C(=O)[C@H]3N(C(CO)C(C)C)C(=O)[C@@H]4C2C(=O)O1 (some centres undefined)
A) 0.351

Q) Tell us which z-score value is on record for `CC(C)(C)OC(=O)CC[C@@]1(C(=O)N2CCOCC2)N=C(c2ccc(OCCCO)cc2)O[C@@H]1c1ccccc1`
A) 1.6

Q) Tell me z-score reported for `NC(=O)NCC#Cc1ccc2c(c1)[C@]1(C(=O)N2)[C@H](c2ccc(OCCO)cc2)N2[C@H](c3ccccc3)[C@H](c3ccccc3)OC(=O)[C@H]2[C@@H]1C(=O)Nc1nc2ccccc2s1`
A) 0.641

Q) Supply recorded z-score for `COc1ccc([Si](C)(C)[C@@H]2[C@@H](CCn3cc(CCO)nn3)O[C@]3(C(=O)N(Cc4ccc(N5C(=O)c6cccc7cccc5c67)cc4)c4ccccc43)[C@H]2C)cc1` here.
A) -2.38

Q) Provide only the value of recorded z-score for `CCOC(=O)C[C@H]1[C@H](OC(=O)Cc2ccc3c(c2)OCO3)[C@@H](NC(=O)c2ccc3ccccc3c2)c2cc(OCCCO)ccc2N1C(=O)c1ccc2ccccc2n1`
A) 1.09
